biological target: ARG (Homo sapiens); construct: purchased Carna Biosciences; experiment: Kinase panel profiling at 1 µmol/L (mobility shift assay, Carna); assay type: biochemical; settings: 1 µmol/L of BTK inhibitor
Sequence (P42684 whole entry): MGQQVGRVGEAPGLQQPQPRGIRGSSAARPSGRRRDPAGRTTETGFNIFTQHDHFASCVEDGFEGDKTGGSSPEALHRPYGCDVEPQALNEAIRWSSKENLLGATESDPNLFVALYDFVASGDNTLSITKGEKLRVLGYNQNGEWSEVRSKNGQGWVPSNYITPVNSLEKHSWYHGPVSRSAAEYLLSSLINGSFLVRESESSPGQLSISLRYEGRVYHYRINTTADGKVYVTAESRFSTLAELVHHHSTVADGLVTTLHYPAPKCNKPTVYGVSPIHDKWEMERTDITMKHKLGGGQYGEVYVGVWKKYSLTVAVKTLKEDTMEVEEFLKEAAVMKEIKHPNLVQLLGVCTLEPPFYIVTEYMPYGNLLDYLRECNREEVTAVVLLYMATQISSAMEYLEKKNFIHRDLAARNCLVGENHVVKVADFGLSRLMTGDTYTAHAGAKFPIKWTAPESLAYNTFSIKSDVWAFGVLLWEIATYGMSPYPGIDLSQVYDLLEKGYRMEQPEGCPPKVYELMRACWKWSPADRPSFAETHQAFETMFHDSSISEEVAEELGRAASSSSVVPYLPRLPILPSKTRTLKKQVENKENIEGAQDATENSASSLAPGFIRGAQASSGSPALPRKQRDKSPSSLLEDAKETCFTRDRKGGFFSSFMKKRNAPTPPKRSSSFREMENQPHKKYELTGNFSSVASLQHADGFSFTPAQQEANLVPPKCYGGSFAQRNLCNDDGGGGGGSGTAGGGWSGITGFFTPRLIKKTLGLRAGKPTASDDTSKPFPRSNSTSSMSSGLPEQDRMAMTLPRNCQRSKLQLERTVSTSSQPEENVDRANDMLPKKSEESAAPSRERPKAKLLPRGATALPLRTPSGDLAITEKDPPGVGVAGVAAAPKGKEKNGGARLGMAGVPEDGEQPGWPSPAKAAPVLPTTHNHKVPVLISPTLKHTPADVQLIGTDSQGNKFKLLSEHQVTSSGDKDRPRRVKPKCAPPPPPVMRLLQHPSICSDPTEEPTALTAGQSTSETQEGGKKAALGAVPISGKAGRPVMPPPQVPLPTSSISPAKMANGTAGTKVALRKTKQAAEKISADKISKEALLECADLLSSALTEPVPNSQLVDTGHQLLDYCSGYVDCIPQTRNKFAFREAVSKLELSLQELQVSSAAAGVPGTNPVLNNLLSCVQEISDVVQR
property.measured: Percentage inhibition of kinase enzyme activity (%)
Express your answer in %, writing the number without its unit.

Problem: Name the reported Percentage inhibition of kinase enzyme activity value associated with the compound COc1ccc(F)cc1C(=O)NCc1ccc(-c2nn([C@@H](C)C(F)(F)F)c(N)c2C(N)=O)cc1
Result: -0.47

Problem: Name the reported Percentage inhibition of kinase enzyme activity value associated with the compound CC#CC(=O)N1CCC[C@H]1c1nc(-c2ccc(C(=O)Nc3ccccn3)cc2)c2c(N)nccn12
Result: 3.53

Problem: Name the reported Percentage inhibition of kinase enzyme activity value associated with the compound O=C(c1ccc(Oc2ccccc2)cc1Cl)c1c[nH]c2ncnc(N[C@@H]3CC[C@@H](CO)OC3)c12
Result: 62.68

Problem: Name the reported Percentage inhibition of kinase enzyme activity value associated with the compound C=CC(=O)N1CCC[C@@H](n2nc(-c3ccc(Oc4ccccc4)cc3)c3c(N)ncnc32)C1
Result: 6.86

---

Give measured Percentage inhibition of kinase enzyme activity for each item. Keep answers brief.
target: MAPKAPK3 (Homo sapiens, UniProt Q16644); construct: purchased Carna Biosciences; assay: Kinase panel profiling at 1 µmol/L (mobility shift assay, Carna); type: biochemical; settings: 1 µmol/L of BTK inhibitor
Sequence (Q16644 whole entry): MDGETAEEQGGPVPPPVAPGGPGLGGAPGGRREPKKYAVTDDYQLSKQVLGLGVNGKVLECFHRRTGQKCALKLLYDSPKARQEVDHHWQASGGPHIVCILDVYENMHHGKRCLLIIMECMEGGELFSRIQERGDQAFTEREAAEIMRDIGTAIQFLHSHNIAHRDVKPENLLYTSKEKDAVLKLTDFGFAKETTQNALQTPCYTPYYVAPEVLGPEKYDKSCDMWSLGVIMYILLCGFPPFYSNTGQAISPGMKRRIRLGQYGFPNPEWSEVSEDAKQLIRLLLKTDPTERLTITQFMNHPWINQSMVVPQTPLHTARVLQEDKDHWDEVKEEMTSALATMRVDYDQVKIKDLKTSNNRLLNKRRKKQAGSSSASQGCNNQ
Express your answer in %, writing the number without its unit.

Problem: Name the reported Percentage inhibition of kinase enzyme activity value associated with the compound O=C(c1ccc(Oc2ccccc2)cc1Cl)c1c[nH]c2ncnc(N[C@@H]3CC[C@@H](CO)OC3)c12
Result: -15.88

Problem: Name the reported Percentage inhibition of kinase enzyme activity value associated with the compound C=CC(=O)N1CCC[C@@H](n2nc(-c3ccc(Oc4ccccc4)cc3)c3c(N)ncnc32)C1
Result: -6.50

Problem: Name the reported Percentage inhibition of kinase enzyme activity value associated with the compound COc1ccc(F)cc1C(=O)NCc1ccc(-c2nn([C@@H](C)C(F)(F)F)c(N)c2C(N)=O)cc1
Result: -18.63

Problem: Name the reported Percentage inhibition of kinase enzyme activity value associated with the compound CC#CC(=O)N1CCC[C@H]1c1nc(-c2ccc(C(=O)Nc3ccccn3)cc2)c2c(N)nccn12
Result: -11.15

Problem: Name the reported Percentage inhibition of kinase enzyme activity value associated with the compound C=CC(=O)N1CCC([C@@H]2CCNc3c(C(N)=O)c(-c4ccc(Oc5ccccc5)cc4)nn32)CC1
Result: -12.22

---

molecular target: AKT2 (Homo sapiens, UniProt P31751); construct: purchased Carna Biosciences; experiment: Kinase panel profiling at 1 µmol/L (mobility shift assay, Carna); type: biochemical; conditions: 1 µmol/L of BTK inhibitor
Sequence (P31751 whole entry): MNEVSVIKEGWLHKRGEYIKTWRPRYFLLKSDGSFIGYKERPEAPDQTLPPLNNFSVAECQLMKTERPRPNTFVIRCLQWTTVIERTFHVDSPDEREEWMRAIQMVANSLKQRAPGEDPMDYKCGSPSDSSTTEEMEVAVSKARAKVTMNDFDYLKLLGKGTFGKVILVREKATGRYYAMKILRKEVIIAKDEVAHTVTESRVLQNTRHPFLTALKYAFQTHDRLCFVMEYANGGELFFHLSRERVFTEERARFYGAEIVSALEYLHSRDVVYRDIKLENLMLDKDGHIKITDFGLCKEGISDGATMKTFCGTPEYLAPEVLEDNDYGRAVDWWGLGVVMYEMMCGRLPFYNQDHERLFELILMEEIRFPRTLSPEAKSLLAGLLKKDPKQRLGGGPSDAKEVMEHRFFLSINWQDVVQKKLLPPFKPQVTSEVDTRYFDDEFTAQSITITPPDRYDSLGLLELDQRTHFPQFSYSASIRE
property.measured: Percentage inhibition of kinase enzyme activity (%)
Express your answer in %, writing the number without its unit.

Problem: Name the reported Percentage inhibition of kinase enzyme activity value associated with the compound C=CC(=O)N1CCC[C@@H](n2nc(-c3ccc(Oc4ccccc4)cc3)c3c(N)ncnc32)C1 [ibrutinib]
Result: -3.12

Problem: Name the reported Percentage inhibition of kinase enzyme activity value associated with the compound COc1ccc(F)cc1C(=O)NCc1ccc(-c2nn([C@@H](C)C(F)(F)F)c(N)c2C(N)=O)cc1 [pirtobrutinib]
Result: -4.63

Problem: Name the reported Percentage inhibition of kinase enzyme activity value associated with the compound CC#CC(=O)N1CCC[C@H]1c1nc(-c2ccc(C(=O)Nc3ccccn3)cc2)c2c(N)nccn12 [acalabrutinib]
Result: -2.69

Problem: Name the reported Percentage inhibition of kinase enzyme activity value associated with the compound O=C(c1ccc(Oc2ccccc2)cc1Cl)c1c[nH]c2ncnc(N[C@@H]3CC[C@@H](CO)OC3)c12 [nemtabrutinib]
Result: 4.40
